The reported measurements were obtained from patent US20210070748A1.

measured-target: TEC (Homo sapiens, UniProt P42680)
Sequence (P42680 whole entry): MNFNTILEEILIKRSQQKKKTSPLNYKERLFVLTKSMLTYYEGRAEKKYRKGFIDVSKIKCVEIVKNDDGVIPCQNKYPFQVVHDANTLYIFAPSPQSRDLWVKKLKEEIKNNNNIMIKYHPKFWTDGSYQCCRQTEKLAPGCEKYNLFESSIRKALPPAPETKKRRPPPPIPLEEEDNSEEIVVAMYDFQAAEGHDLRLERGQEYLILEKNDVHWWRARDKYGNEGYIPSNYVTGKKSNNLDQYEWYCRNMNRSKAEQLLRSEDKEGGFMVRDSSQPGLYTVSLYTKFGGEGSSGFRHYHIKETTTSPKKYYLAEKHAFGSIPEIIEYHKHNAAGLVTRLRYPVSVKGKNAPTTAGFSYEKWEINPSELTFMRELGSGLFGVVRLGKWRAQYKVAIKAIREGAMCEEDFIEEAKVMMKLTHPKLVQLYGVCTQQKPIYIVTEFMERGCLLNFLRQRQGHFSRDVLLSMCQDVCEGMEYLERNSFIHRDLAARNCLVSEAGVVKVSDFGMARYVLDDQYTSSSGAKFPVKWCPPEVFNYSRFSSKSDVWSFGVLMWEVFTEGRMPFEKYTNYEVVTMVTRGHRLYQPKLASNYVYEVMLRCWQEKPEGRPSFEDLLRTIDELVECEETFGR
assay-info: Inhibition of a panel of kinases, in vitro HotSpot kinase assay: TEC
Type: biochemical
test-conditions: D-compounds panel data; 1 μM ATP
Entries and their IC50 values follow.

Some entries whose results are on file:
Q) // IC50 lookup, key: Cc1nsc(Nc2nc(N3CCC[C@@H](NC(=O)N(C)C)[C@H]3C)cnc2C(N)=O)c1C [Example D-119]
A) > 10 µM

Q) Also check C[C@@H]1[C@H](NC(=O)c2ccc(C3CC3)nc2)CCCN1c1cnc(C(N)=O)c(Nc2ccc(OC3CCN(C)CC3)cc2)n1 [Example D-294]
A) ≤ 0.01 µM

Q) Also check CN1CCN(C(=O)c2ccc(Nc3nc(N[C@H]4CC[C@H](NC(=O)c5ccc(C6CC6)cc5F)CC4)cnc3C(N)=O)cc2)CC1 [Example D-70]
A) 0.1 to 1 µM

Q) Also check C[C@@H]1[C@H](NC(=O)c2ccc3cnn(C)c3c2)CCCN1c1cnc(C(N)=O)c(Nc2cnn(C)c2)n1 [Example D-259]
A) ≤ 0.01 µM

Q) Also check C[C@@H]1[C@H](NC(=O)c2ccc(C3CC3)cc2F)CCCN1c1cnc(C(N)=O)c(Nc2nc3c(s2)CN(C)CC3)n1 [Example D-62]
A) 0.1 to 1 µM

Q) Also check Cn1cc(Nc2nc(N3CCC(F)(F)[C@H](NC(=O)c4ccc(C5CC5)cc4)C3)cnc2C(N)=O)cn1 [Example D-192]
A) 1 to 10 µM

Here's the next entry for you.
Q) // IC50 lookup, key: CN1CCN(C(=O)c2ccc(Nc3nc(N[C@H]4CC[C@@H](NC(=O)N(C)C)CC4)cnc3C(N)=O)cc2)CC1 [Example D-72]
A) 1 to 10 µM
